EXPERIMENT: Inhibition of Plasmodium falciparum recombinant carbonic anhydrase
We'd kindly ask you to apply these Ki classes: LOW: < 2000 nM; MEDIUM: ≥ 2000 nM and < 4000 nM; HIGH: ≥ 4000 nM

Which category fits this record: COc1ccc2cncc(CC(=O)Nc3ccccc3S(N)(=O)=O)c2c1
MEDIUM

Into which category would you place NS(=O)(=O)c1ccccc1NS(=O)(=O)c1c(F)c(F)c(F)c(F)c1F ?
MEDIUM

# bin label for NS(=O)(=O)c1ccccc1NC(=O)c1cc2ccccc2oc1=O
HIGH

Into which category would you place CC(C)(O)Nc1ccc(S(N)(=O)=O)cc1 ?
MEDIUM

Tag the class for NS(=O)(=O)c1ccc(Nc2cscn2)cc1
LOW

Bin? NS(=O)(=O)c1ccc(NC(=S)NC(=O)Nc2cccc(F)c2)cc1
LOW

Could you place NS(=O)(=O)c1ccc(NC(=O)Nc2ccc(Cl)c(Cl)c2)cc1 in its proper category? Many thanks.
HIGH

Lab note: which band did CCc1c(Cl)ccc(NC(=O)NC(=S)Nc2ccc(S(N)(=O)=O)cc2)c1Cl land in?
LOW

Given COc1ccc2oc(=O)cc(CC(=O)NNc3ccc(S(N)(=O)=O)cc3)c2c1 , name the class its Ki places it in.
MEDIUM

State the class of the compound shown: NS(=O)(=O)c1ccc(/N=C/c2ccc(Br)c3ccccc23)cc1
HIGH

Tag the class for COc1ccc2oc(=O)cc(CC(=O)Nc3cccc(S(N)(=O)=O)c3)c2c1
HIGH

Where would NS(=O)(=O)c1ccccc1NC(=O)N(c1ccccc1)c1ccc(F)cc1 land among the classes by reported Ki?
MEDIUM

Band assignment needed for Cc1cc(Cl)cc(C)c1NC(=O)NC(=S)Nc1ccc(S(N)(=O)=O)cc1 please.
LOW

Any idea which band COC(=O)NS(=O)(=O)c1ccc(NC(=S)Nc2ccc(S(N)(=O)=O)cc2)cc1 is in?
HIGH

Exam item: assign COc1ccc2oc(=O)cc(CC(=O)Nc3ccccc3S(N)(=O)=O)c2c1 to the correct category.
LOW

Field: class (Ki) — entry: Cn1nc(S(N)(=O)=O)s/c1=N/C(=O)c1c(F)c(F)c(F)c(F)c1F
HIGH

Could you place NS(=O)(=O)c1nnc(NC(=O)c2c(F)c(F)c(F)c(F)c2F)s1 in its proper category? Many thanks.
MEDIUM

Class label required: NS(=O)(=O)c1ccc(Nc2nocc2Cl)cc1
LOW

Please let me know in which category the item NS(=O)(=O)c1ccc(CCNC(=O)c2cc3ccccc3oc2=O)cc1 belongs.
HIGH

Band for NS(=O)(=O)c1ccc(Nc2ncc(Cl)s2)cc1 ?
LOW
